B1: library; numbered along this chain (parent)
chain: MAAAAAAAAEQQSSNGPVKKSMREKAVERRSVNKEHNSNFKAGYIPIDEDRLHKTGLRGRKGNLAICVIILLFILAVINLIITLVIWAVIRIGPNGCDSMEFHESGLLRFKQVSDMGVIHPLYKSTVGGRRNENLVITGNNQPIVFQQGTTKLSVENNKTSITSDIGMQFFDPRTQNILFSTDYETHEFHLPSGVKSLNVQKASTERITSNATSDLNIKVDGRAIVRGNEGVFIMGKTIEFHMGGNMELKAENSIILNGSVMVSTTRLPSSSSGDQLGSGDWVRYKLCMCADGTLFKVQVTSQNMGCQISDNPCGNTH

Variants of: B1
Test: SGCB cell-surface expression functional score (HA stain, bin4 vs bin1, normalised to synonymous) (log10 ratio); higher = more cell-surface SGCB (functional)
Lab note: compare SGCB cell-surface expression functional score (log10) against -0.1. Equal or greater, write Condition met. Smaller, write Condition not met.

sequence_change: L249W
assigned_class: Condition met

sequence_change: G280Q
assigned_class: Condition not met

sequence_change: Y123N
assigned_class: Condition met

sequence_change: S21G
assigned_class: Condition met

sequence_change: E185W
assigned_class: Condition not met

sequence_change: V155M
assigned_class: Condition met

sequence_change: Q276M
assigned_class: Condition met

sequence_change: A9Y
assigned_class: Condition met

sequence_change: L287K
assigned_class: Condition not met

sequence_change: P269G
assigned_class: Condition met

sequence_change: P94Y
assigned_class: Condition met

sequence_change: I208E
assigned_class: Condition not met

sequence_change: L277T
assigned_class: Condition met

sequence_change: G128Q
assigned_class: Condition not met

sequence_change: R223Y
assigned_class: Condition met

sequence_change: Q12A
assigned_class: Condition met

sequence_change: H103T
assigned_class: Condition met

sequence_change: E104Y
assigned_class: Condition met

sequence_change: A8N
assigned_class: Condition met

sequence_change: V18H
assigned_class: Condition not met

sequence_change: T126R
assigned_class: Condition not met

sequence_change: T294L
assigned_class: Condition met
